Collected set of pKi measured with UniProt:P28845 across studies.
Give only the number. pKi is defined as minus log10 of concentration in molar units.

>>> experimental_result("COc1cc(F)ccc1OC(C)(C)C(=O)N[C@H]1C2CC3CC1C[C@](S(C)(=O)=O)(C3)C2")
7.70
>>> experimental_result("CCC1(C)SC(NC23CCC(CC2)C3)=NC1=O (racemic)")
7.14
>>> experimental_result("CCCC1(C)SC(NC23CC4CC(CC2C4)C3)=NC1=O (racemic)")
7.92
>>> experimental_result("CCC1(C)SC(NC2C3CCC2CC3)=NC1=O (racemic)")
6.43
>>> experimental_result("CCCC1(C)SC(NC2CCCCCCC2)=NC1=O (racemic)")
7.55

// query # returns recorded pKi (system: UniProt:P28845) for C[C@@H](C(=O)N[C@H]1C2CC3CC1C[C@](O)(C3)C2)N1CCN(c2ccc(C(F)(F)F)cn2)CC1 (stereo in doubt; (R)-22f)
// result 8.40

// query # returns recorded pKi (system: UniProt:P28845) for CCC1SC(Nc2ccccc2C)=NC1=O (stereo unspecified)
// result 6.72

====

Collected set of Ki measured with 11-beta-hydroxysteroid dehydrogenase 1 (Homo sapiens) across studies.
Sequence (P28845 whole entry): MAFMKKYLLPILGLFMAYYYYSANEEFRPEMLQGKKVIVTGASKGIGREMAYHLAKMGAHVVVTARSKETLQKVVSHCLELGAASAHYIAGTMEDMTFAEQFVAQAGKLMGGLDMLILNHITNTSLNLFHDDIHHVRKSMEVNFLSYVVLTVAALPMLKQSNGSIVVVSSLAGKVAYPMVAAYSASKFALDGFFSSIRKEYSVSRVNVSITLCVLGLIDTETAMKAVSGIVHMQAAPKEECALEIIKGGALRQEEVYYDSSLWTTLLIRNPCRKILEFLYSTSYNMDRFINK
State just the number; it will be interpreted in µM.

These solved cases illustrate the format of a correct answer.
>>> experimental_result("CCOC(=O)[C@H]1[C@@H]2CCC(N3CC(COc4ccc(C#N)cn4)C(C)(C)C3=O)CC[C@@H]21 (stereo not given in full)")
0.05
>>> experimental_result("CCC1(C)SC(NC2C(C)(C)C2(C)C)=NC1=O (racemic)")
0.058
>>> experimental_result("CCCC1(C)SC(NC2CCCCCC2)=NC1=O (racemic)")
0.032

// query # returns recorded Ki (system: 11-beta-hydroxysteroid dehydrogenase 1 (Homo sapiens)) for Nc1c(Cl)cc(C(=O)N(C2CCCCC2)C2CC2)cc1Cl
// result 0.014
